Target: T1, PDZD8, Q8NEN9
T1 sequence (Q8NEN9 361-459, limits assumed, looked up): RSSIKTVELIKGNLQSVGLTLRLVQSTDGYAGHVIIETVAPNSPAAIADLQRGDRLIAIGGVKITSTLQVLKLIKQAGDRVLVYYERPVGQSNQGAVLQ
Test: holdup assay
Set-up: key: below the threshold = too weak to quantify, mostly under pKd 3.1 to 4
Details: plain residues with an end cap or a label only (N-terminal biotin on a linker: ttds)

{"columns": ["binder", "pKd"],
 "data": [
  ["SGSRPSATVV [HPV73-E6, Q82005]", 4.04],
  ["RLQRRRETQV [HPV18-E6, P06463]", "below the threshold"],
  ["QRQARSETLV [HPV59-E6, Q81964]", "below the threshold"],
  ["SSLQSLETSV [ATP2B4, P23634]", "below the threshold"]
]}

Reference source for all entries: paper PMC9482650
